Test system: Du145 prostate cancer
Assay: MTT proliferation inhibition, Du145
Type: cell-based
Conditions: Homo sapiens, DU-145, read-out: Proliferation inhibition rate, DU145 Prostate cancer
Experimental endpoint: inhibition at 1 µM (%)
Write the answer as a number in %, unit excluded.

Completed entries (count: 5):
Cpd smiles | Readout units | Quantitative result
CO[C@H]1C(=O)[C@]2(C)[C@@H](OC)C[C@H]3OC[C@@]3(OC(C)=O)[C@H]2[C@H](OC(=O)c2ccccc2)[C@]23OC(=O)O[C@H]2[C@H](OC(=O)[C@H](O)[C@H](CC(C)C)NC(=O)OC(C)(C)C)C(C)=C1C3(C)C | % | 83.9
CCSC(=O)O[C@H]1C(=O)[C@]2(C)[C@@H](OC)C[C@H]3OC[C@@]3(OC(C)=O)[C@H]2[C@H](OC(=O)c2ccccc2)[C@]23OC(=O)O[C@H]2[C@H](OC(=O)[C@H](O)[C@@H](NC(=O)OC(C)(C)C)c2ccccc2)C(C)=C1C3(C)C | % | 90.7
CO[C@H]1C(=O)[C@]2(C)[C@@H](OC)C[C@H]3OC[C@@]3(OC(C)=O)[C@H]2[C@H](OC(=O)c2ccccc2)[C@]23OC(=O)O[C@H]2[C@H](OC(=O)[C@H](O)[C@@H](NC(=O)OC(C)(C)C)c2ccccc2)C(C)=C1C3(C)C | % | 87.8
CO[C@H]1C[C@H]2OC[C@@]2(OC(C)=O)[C@H]2[C@H](OC(=O)c3ccccc3)[C@]34OC(=O)O[C@H]3[C@H](OC(=O)[C@H](O)[C@@H](NC(=O)OC(C)(C)C)c3ccccn3)C(C)=C([C@@H](OC(=O)N(C)C)C(=O)[C@]12C)C4(C)C | % | 90.3
CO[C@H]1C(=O)[C@]2(C)[C@@H](OC(=O)N(C)C)C[C@H]3OC[C@@]3(OC(C)=O)[C@H]2[C@H](OC(=O)c2ccccc2)[C@]23OC(=O)O[C@H]2[C@H](OC(=O)[C@H](O)[C@@H](NC(=O)OC(C)(C)C)c2ccccn2)C(C)=C1C3(C)C | % | 90.8

stdin: Any idea what inhibition at 1 µM was measured for COC(=O)O[C@H]1C[C@H]2OC[C@@]2(OC(C)=O)[C@H]2[C@H](OC(=O)c3ccccc3)[C@]34OC(=O)O[C@H]3[C@H](OC(=O)[C@H](O)[C@H](CC(C)C)NC(=O)OC(C)(C)C)C(C)=C([C@@H](OC)C(=O)[C@]12C)C4(C)C ?
stdout: 88.6

stdin: Any idea what inhibition at 1 µM was measured for CO[C@H]1C(=O)[C@]2(C)[C@@H](OC)C[C@H]3OC[C@@]3(OC(C)=O)[C@H]2[C@H](OC(=O)c2ccccc2)[C@]23OC(=O)O[C@H]2[C@H](OC(=O)[C@H](O)[C@@H](NC(=O)c2ccccc2)c2ccccc2)C(C)=C1C3(C)C ?
stdout: 84.7

stdin: Any idea what inhibition at 1 µM was measured for CO[C@H]1C(=O)[C@]2(C)[C@@H](OC)C[C@H]3OC[C@@]3(OC(C)=O)[C@H]2[C@H](OC(=O)c2ccccc2)[C@]23OC(=O)O[C@H]2[C@H](OC(=O)[C@H](O)[C@@H](NC(=O)N(C)C)c2ccccc2)C(C)=C1C3(C)C ?
stdout: 85

----------
Test: Caco-2 cell monolayer membrane transport assay (Papp and recovery)
Assay type: in vitro ADME
Settings: human, Caco-2, Caco-2, A-B, Mean; read-out: Recovery rate in mass, Mean
Recorded measurements of recovery, one per entry
Write the answer as a number in %, unit excluded.

Completed entries (count: 5):
Compound | Quantitative result
CO[C@H]1C(=O)[C@]2(C)[C@@H](OC(=O)N(C)C)C[C@H]3OC[C@@]3(OC(C)=O)[C@H]2[C@H](OC(=O)c2ccccc2)[C@]23OC(=O)O[C@H]2[C@H](OC(=O)[C@H](O)[C@@H](NC(=O)OC(C)(C)C)c2ccccn2)C(C)=C1C3(C)C [PCMI-15] | 79.3
CO[C@H]1C[C@H]2OC[C@@]2(OC(C)=O)[C@H]2[C@H](OC(=O)c3ccccc3)[C@]34OC(=O)O[C@H]3[C@H](OC(=O)[C@H](O)[C@@H](NC(=O)OC(C)(C)C)c3ccccn3)C(C)=C([C@@H](OC(=O)N(C)C)C(=O)[C@]12C)C4(C)C [PCMI-09] | 76.5
CO[C@H]1C[C@H]2OC[C@@]2(OC(C)=O)[C@H]2[C@H](OC(=O)c3ccccc3)[C@]34OC(=O)O[C@H]3[C@H](OC(=O)[C@H](O)[C@@H](NC(=O)OC(C)(C)C)c3ccccc3)C(C)=C([C@@H](OC(=O)N(C)C)C(=O)[C@]12C)C4(C)C [PCMI-08] | 99.4
COC(=O)O[C@H]1C[C@H]2OC[C@@]2(OC(C)=O)[C@H]2[C@H](OC(=O)c3ccccc3)[C@]34OC(=O)O[C@H]3[C@H](OC(=O)[C@H](O)[C@@H](NC(=O)N(C)C)c3ccccc3)C(C)=C([C@@H](OC)C(=O)[C@]12C)C4(C)C [PCMI-19] | 74.5
COC(=O)O[C@H]1C[C@H]2OC[C@@]2(OC(C)=O)[C@H]2[C@H](OC(=O)c3ccccc3)[C@]34OC(=O)O[C@H]3[C@H](OC(=O)[C@H](O)[C@@H](NC(=O)OC(C)(C)C)c3ccccc3)C(C)=C([C@@H](OC)C(=O)[C@]12C)C4(C)C [PCMI-17] | 88.7

stdin: Any idea what recovery was measured for CO[C@H]1C(=O)[C@]2(C)[C@@H](OC)C[C@H]3OC[C@@]3(OC(C)=O)[C@H]2[C@H](OC(=O)c2ccccc2)[C@]23OC(=O)O[C@H]2[C@H](OC(=O)[C@H](O)[C@H](CC(C)C)NC(=O)OC(C)(C)C)C(C)=C1C3(C)C [PCMI-05] ?
stdout: 54.7

stdin: Any idea what recovery was measured for COC(=O)O[C@H]1C[C@H]2OC[C@@]2(OC(C)=O)[C@H]2[C@H](OC(=O)c3ccccc3)[C@]34OC(=O)O[C@H]3[C@H](OC(=O)[C@H](O)[C@@H](NC(=O)OC(C)(C)C)c3ccccn3)C(C)=C([C@@H](OC)C(=O)[C@]12C)C4(C)C [PCMI-18] ?
stdout: 88.3
